- statedConditions: 289.15 K; 101.33 kPa; Liquid; Sing-around technique in a fixed-path interferometer
Numbers after ± are expanded uncertainties.
Here, each record is paired with measured speed of sound data.
assayMetric: speed of sound

• CCCC[n+]1ccn(C2CCCC2)c1.O=S(=O)([N-]S(=O)(=O)C(F)(F)F)C(F)(F)F = 1293.1 ± 5 m/s
• CCCCn1cc[n+](C(CC)CC)c1.O=S(=O)([N-]S(=O)(=O)C(F)(F)F)C(F)(F)F = 1233.8 ± 5 m/s
• CCCCC[n+]1ccn(CCCC)c1.O=S(=O)([N-]S(=O)(=O)C(F)(F)F)C(F)(F)F = 1234.8 ± 5 m/s
• CCCCn1cc[n+](CCC(C)C)c1.O=S(=O)([N-]S(=O)(=O)C(F)(F)F)C(F)(F)F = 1238.9 ± 5 m/s
